Cited source: PubChem BioAssay AID2060607

Below, each of the compounds is paired with its reported IC50 value.
# Tested on: 876862-298-R-J1-PDC complex spheroids, viability % test/control;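 further: spheroids exposed to drugs for 7 days before readout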
# measurementNotes: Anticancer human tumor 876862-298-R-J1-PDC patient-derived endometrial carcinoma cell line growth inhibition [CLK]
# testSettings: curve of first compound; second compound 10 µM
testReadout: IC50

compound: C#Cc1c(F)ccc2cc(O)cc(-c3ncc4c(N5CC6CCC(C5)N6)nc(OCC56CCCN5CC(F)C6)nc4c3F)c12 (stereo not given) + CN1CCN(c2cc(C(=O)Nc3cc4cc(-c5cnn(C)c5)ccc4cn3)ccn2)CC1
testReadout: IC50
result: < 31.6 nM

compound: O=C(c1cc(Cc2n[nH]c(=O)c3ccccc23)ccc1F)N1CCN(C(=O)C2CC2)CC1 + CN1CCN(c2cc(C(=O)Nc3cc4cc(-c5cnn(C)c5)ccc4cn3)ccn2)CC1
testReadout: IC50
result: < 31.6 nM

compound: COC1C=CCC(C)C(C)S(=O)(=O)NC(=O)c2ccc3c(c2)N(CC2CCC21)CC1(CCCc2cc(Cl)ccc21)CO3 (stereo not given) + CN1CCN(c2cc(C(=O)Nc3cc4cc(-c5cnn(C)c5)ccc4cn3)ccn2)CC1
testReadout: IC50
result: < 31.6 nM

compound: C=CC(=O)Nc1cc(Nc2nccc(-c3cn(C)c4ccccc34)n2)c(OC)cc1N(C)CCN(C)C + CNC(=O)c1ccc(Nc2nc(OC3CCCC3)c3c(-c4ccc5nc(C)oc5c4)c[nH]c3n2)c(OC)c1
testReadout: IC50
result: < 0.949 nM

compound: NC(=O)C(=Cn1cnc(-c2cc(C(F)(F)F)cc(C(F)(F)F)c2)n1)c1cncnc1 + CN1CCN(c2cc(C(=O)Nc3cc4cc(-c5cnn(C)c5)ccc4cn3)ccn2)CC1
testReadout: IC50
result: < 9.49 nM

compound: Nc1ccn(C2OC(CO)C(O)C2(F)F)c(=O)n1 (stereo not given) + CNC(=O)c1ccc(Nc2nc(OC3CCCC3)c3c(-c4ccc5nc(C)oc5c4)c[nH]c3n2)c(OC)c1
testReadout: IC50
result: < 31.6 nM

compound: CC1(C)CCC(CN2CCN(c3ccc(C(=O)NS(=O)(=O)c4ccc(NCC5CCOCC5)c([N+](=O)[O-])c4)c(Oc4cnc5[nH]ccc5c4)c3)CC2)=C(c2ccc(Cl)cc2)C1 + CN1CCN(c2cc(C(=O)Nc3cc4cc(-c5cnn(C)c5)ccc4cn3)ccn2)CC1
testReadout: IC50
result: < 31.6 nM

compound: CC(=O)O[C@H]1C(=O)[C@@]2(C)[C@H]([C@H](OC(=O)c3ccccc3)[C@]3(O)C[C@H](OC(=O)[C@H](O)[C@@H](NC(=O)c4ccccc4)c4ccccc4)C(C)=C1C3(C)C)[C@]1(OC(C)=O)CO[C@@H]1C[C@@H]2O + CN1CCN(c2cc(C(=O)Nc3cc4cc(-c5cnn(C)c5)ccc4cn3)ccn2)CC1
testReadout: IC50
result: < 31.6 nM

compound: CC(C)CC(NC(=O)C(Cc1ccccc1)NC(=O)c1cnccn1)B(O)O (stereo not given) + CNC(=O)c1ccc(Nc2nc(OC3CCCC3)c3c(-c4ccc5nc(C)oc5c4)c[nH]c3n2)c(OC)c1
testReadout: IC50
result: < 0.949 nM

compound: CC(Nc1ccc2c(c1)OCCn1cc(N3C(=O)OCC3C(F)F)nc1-2)C(N)=O (stereo not given) + CN1CCN(c2cc(C(=O)Nc3cc4cc(-c5cnn(C)c5)ccc4cn3)ccn2)CC1
testReadout: IC50
result: < 31.6 nM
